- Tested on: HT29 colon
- experimental.details: NCI tumour cell line growth inhibition, 48 h; in the data active = GI50 below about 0.43 µM; inactive = the rest
Assign a class; possible classes are active, inactive

Example cases with answers are listed next.
| compound | experimental.target | answer.label |
| --- | --- | --- |
| Nc1nc(Cl)nc2c1ncn2C1OC(CO)C(O)C1O (centres undefined) | HT29 colon | inactive |
| COc1cc(O)c2c(=O)c(OC)c(-c3ccc(OC)c(OC)c3)oc2c1.[Sn] | HT29 colon | inactive |
| NC(CS)C(=O)NCCNc1ccc(NCCNC(=O)C(N)CS)c2c1C(=O)c1c(O)ccc(O)c1C2=O (centres undefined) | HT29 colon | active |

Let's switch to this compound now.
What outcome does the record of this test show for COC1/C=C/OC2(C)Oc3c(C)c(O)c4c(O)c(c(C=NOC(c5ccccc5)c5ccccc5)c(O)c4c3C2=O)NC(=O)/C(C)=C/C=C/C(C)C(O)C(C)C(O)C(C)C(OC(C)=O)C1C (centres undefined) ?
inactive
